Numbers sourced from patent US20250215104A1.

target: T1, cynomolgus soluble urokinase plasminogen activator receptor (cynomolgus suPAR) (cynomolgus, UniProt Q9GK78 23-303, limits assumed); test: BLI (Octet) off-rate screen of scFv
T1 construct: also called cynomolgus uPAR; cynoPLAUR-His
T1 sequence (Q9GK78 23-303 limits assumed): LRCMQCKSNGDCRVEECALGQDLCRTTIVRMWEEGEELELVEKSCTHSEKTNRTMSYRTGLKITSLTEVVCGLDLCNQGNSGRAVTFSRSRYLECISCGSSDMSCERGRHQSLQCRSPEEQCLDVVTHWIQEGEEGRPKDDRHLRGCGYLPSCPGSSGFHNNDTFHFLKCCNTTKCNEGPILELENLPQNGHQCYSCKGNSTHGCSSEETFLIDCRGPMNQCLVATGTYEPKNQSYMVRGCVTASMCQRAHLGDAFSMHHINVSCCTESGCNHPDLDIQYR
measurement-label: koff (s⁻¹)
// units = s⁻¹; emit number, no label

suPAR_DB01_G08 (scFv, V domains shown, Screened as scFv) VH: QVQLVQSGAEVKKPGASVKVSCKASGYSFTNYYMHWVRQAPGQGLEWMGWIDHENGNTSYAQKFQGRVTMTRDTSTSTVYMELSSLRSEDTAVYYCARGYDVDWFVYWGQGTLVTVSS VL: DIQMTQSPSSLSASVGDRVTITCSARQSVSYMYWYQQKPGKAPKLLIYRTSSLASGVPSRFSGSGSGTDFTLTISSLQPEDFATYYCQQYHSYPPTFGGGTKVEIK ... 0.000104

q: Entry suPAR_DB02_C04 (scFv, V domains shown, Screened as scFv) VH: QVQLVQSGAEVKKPGASVKVSCKASGFNIKDYYIHWVRQAPGQGLEWMGWIDHEGGSTSYDQKFQGRVTMTRDTSTSTVYMELSSLRSEDTAVYYCARGYDVDWFVYWGQGTLVTVSS VL: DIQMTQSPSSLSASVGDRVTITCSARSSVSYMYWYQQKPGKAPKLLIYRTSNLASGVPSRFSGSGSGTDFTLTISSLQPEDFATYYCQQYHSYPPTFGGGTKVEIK : reported koff = ?
a: 0.00132
